target: Dipeptidyl peptidase 4 (Homo sapiens, UniProt P27487); assay: Inhibition of human recombinant His-tagged DPP4 expressed in insect cells
Sequence (P27487 whole entry): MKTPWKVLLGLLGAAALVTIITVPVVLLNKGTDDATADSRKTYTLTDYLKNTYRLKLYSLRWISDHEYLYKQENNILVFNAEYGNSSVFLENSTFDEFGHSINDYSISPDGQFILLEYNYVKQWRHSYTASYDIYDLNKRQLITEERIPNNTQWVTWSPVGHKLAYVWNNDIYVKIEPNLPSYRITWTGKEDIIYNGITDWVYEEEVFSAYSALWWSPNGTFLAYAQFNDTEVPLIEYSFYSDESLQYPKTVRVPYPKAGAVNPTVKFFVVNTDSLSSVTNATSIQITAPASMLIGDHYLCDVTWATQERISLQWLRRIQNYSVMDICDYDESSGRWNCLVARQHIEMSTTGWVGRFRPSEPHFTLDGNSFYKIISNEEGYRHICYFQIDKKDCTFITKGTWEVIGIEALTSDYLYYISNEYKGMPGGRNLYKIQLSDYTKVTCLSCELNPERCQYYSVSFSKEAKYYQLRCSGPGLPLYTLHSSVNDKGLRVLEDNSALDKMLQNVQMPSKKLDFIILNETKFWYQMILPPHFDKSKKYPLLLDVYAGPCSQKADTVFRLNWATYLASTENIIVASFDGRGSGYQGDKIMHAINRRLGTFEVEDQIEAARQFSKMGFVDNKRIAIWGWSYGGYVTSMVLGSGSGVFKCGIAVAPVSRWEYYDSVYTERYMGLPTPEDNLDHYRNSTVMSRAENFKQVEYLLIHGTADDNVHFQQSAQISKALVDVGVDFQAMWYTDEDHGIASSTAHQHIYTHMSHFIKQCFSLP
pIC50: −log10 of the molar value.
measured endpoint: pIC50

>>> assay_result("N#C[C@@H]1CCCN1C(=O)[C@@H]1C[C@@H](CC(=O)Nc2ccccc2)C(=O)N1")
"< 4.00"

Ask: Look up pIC50 with Dipeptidyl peptidase 4 (Homo sapiens, UniProt P27487) for this molecule: O=C(NCC(=O)N1CCC[C@H]1B(O)O)c1cccc2ccccc12
Result: < 4.70

Ask: Test system Dipeptidyl peptidase 4 (Homo sapiens, UniProt P27487); read-out pIC50; what value for N#C[C@@H]1C[C@H](F)CN1C(=O)[C@@H]1C[C@@H](CC(=O)N2Cc3ccccc3C2)C(=O)N1 ?
Result: < 4.00

Ask: Find pIC50 (Dipeptidyl peptidase 4 (Homo sapiens, UniProt P27487)) for the entry N#C[C@@H]1CCCN1C(=O)[C@@H](N)CCCN1Cc2ccccc2C1=O
Result: 8.00

----------
molecular target: UniProt:Q12884; assay: Inhibition of human recombinant FAP expressed in Hi5 insect cells
Sequence (Q12884 whole entry): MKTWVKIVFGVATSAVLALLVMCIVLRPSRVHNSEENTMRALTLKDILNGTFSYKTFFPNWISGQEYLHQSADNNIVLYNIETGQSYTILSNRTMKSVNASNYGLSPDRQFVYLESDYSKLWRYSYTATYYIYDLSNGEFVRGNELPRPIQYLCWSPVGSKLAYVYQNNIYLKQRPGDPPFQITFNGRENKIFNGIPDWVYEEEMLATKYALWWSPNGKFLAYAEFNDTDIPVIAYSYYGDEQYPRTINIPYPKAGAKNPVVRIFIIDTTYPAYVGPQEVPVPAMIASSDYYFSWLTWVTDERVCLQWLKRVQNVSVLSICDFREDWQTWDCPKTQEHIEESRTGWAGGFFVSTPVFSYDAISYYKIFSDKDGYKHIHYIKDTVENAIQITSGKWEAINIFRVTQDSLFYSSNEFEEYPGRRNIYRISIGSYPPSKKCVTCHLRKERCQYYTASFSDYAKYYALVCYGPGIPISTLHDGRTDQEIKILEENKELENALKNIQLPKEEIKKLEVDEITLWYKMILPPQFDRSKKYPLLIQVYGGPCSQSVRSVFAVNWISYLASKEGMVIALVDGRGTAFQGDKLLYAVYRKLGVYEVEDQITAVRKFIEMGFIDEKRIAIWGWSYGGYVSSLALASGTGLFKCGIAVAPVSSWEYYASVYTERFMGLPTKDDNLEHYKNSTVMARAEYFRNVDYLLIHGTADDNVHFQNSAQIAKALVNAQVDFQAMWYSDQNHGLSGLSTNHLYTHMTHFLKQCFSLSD
pIC50: −log10 of the molar value.
The reader will find reported pIC50 values listed item by item below.

Record excerpt, results attached:
>>> assay_result("O=C1N[C@H](C(=O)N2CCCC2)C[C@H]1CC(=O)N1Cc2ccccc2C1")
"< 4.00"
>>> assay_result("O=C1N[C@H](C(=O)N2CCSC2)C[C@H]1CC(=O)N1Cc2ccccc2C1")
"< 4.30"
>>> assay_result("N#C[C@@H]1CCCN1C(=O)[C@@H](N)CC(=O)N1CCN(C(c2ccc(F)cc2)c2ccc(F)cc2)CC1")
"< 4.00"

Ask: Form field: pIC50 recorded for N[C@@H](CCNCc1ccccc1Cl)C(=O)N1CCCCC1 with UniProt:Q12884 (enter value)
Result: < 4.00

Ask: Form field - read-out: pIC50; system: UniProt:Q12884; submitted item: CC[C@@H](C)[C@H](N)C(=O)N1Cc2ccccc2C1
Result: < 4.00

Ask: Give the reported pIC50 for NC(=O)[C@@H]1CCCN1C(=O)[C@@H]1C[C@@H](CC(=O)N2Cc3ccccc3C2)C(=O)N1 (system: UniProt:Q12884).
Result: < 4.00

Ask: Tell me reported pIC50 for CC(C)(C)NC(=O)[C@@H]1CCCN1C(=O)[C@@H]1C[C@@H](CC(=O)N2Cc3ccccc3C2)C(=O)N1 , tested with UniProt:Q12884.
Result: < 4.00

Ask: What reported pIC50 corresponds to N#C[C@@H]1CCCN1C(=O)[C@@H]1C[C@@H](CC(=O)Nc2ccccc2)C(=O)N1 on UniProt:Q12884?
Result: < 4.70

----------
Each entry below carries its reported clearance.
experiment: Plasma clearance in BALB/c mouse at 2 mg/kg, iv; type: ADME, organism-based; set-up: dose 2 mg/kg, route intravenous
# unit: mL/min/kg | format: bare number

These recorded examples may help you get a feel for the data.
>>> assay_result("N#C[C@@H]1C[C@H](F)CN1C(=O)[C@@H]1C[C@@H](CC(=O)N2Cc3ccc(Cl)cc3C2)C(=O)N1")
58
>>> assay_result("N#C[C@@H]1C[C@H](F)CN1C(=O)[C@@H]1C[C@@H](CC(=O)N2Cc3ccccc3C2)C(=O)N1")
94

We next turn to a different compound, shown below.
Ask: # get_value(readout='clearance', item= N#C[C@@H]1CC(F)(F)CN1C(=O)[C@@H]1C[C@@H](CC(=O)N2Cc3ccccc3C2)C(=O)N1 )
Result: 87

Value source: ChEMBL document CHEMBL1240513
